System: VACV-WR-GFP virus
assay-details: microbe, parasite or virus in culture
Type: cell-based
condition-details: Orthopoxvirus vaccinia, HeLa, 24 h, read-out: IC90 (90% inhibition of viral spread)
Please provide measured log10 IC90 for the entries that follow.
Each number you see is log10 of IC90, and the unit inside the log is µM.

Example entries and their recorded answers appear below.
compound: CCC(=O)N1CC(=O)Nc2ccc(Br)cc2C1c1ccccc1 (centres unmarked)
test-target: VACV-WR-GFP virus
assay-endpoint: log10 IC90
numeric-value: 0.86

compound: O=C1CN(C(=O)c2nccs2)C(c2cccc(Cl)c2)c2cc(Br)ccc2N1 (centres unmarked)
test-target: VACV-WR-GFP virus
assay-endpoint: log10 IC90
numeric-value: 0.11

compound: Cc1ccc(/C=N/c2ccccc2C(=O)Nc2ccccc2)s1
test-target: VACV-WR-GFP virus
assay-endpoint: log10 IC90
numeric-value: 0.74

compound: O=C1CN(C(=O)c2nccs2)C(c2cc(Cl)cc(Cl)c2)c2cc(Cl)ccc2N1 (centres unmarked)
test-target: VACV-WR-GFP virus
assay-endpoint: log10 IC90
numeric-value: 0.26

# next compound below
Look up log10 IC90 for this compound: `O=C(NN1C(=O)[C@@H]2[C@@H]3C=C[C@@H]([C@H]4C[C@@H]34)[C@@H]2C1=O)c1ccc(C(F)(F)F)cc1` -1.00

Every entry's value here was drawn from paper PMC7190985.
